# System Tested: nSH3_E31A mutant domain of Grb2 (Homo sapiens, UniProt P62993, E31A)
# Sequence (P62993 1-58 E31A limits assumed): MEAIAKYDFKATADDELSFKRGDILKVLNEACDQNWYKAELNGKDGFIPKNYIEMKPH
# Run Description: ITC binding of Sos1 peptides to nSH3_E31A mutant domain
# Details: SD
Ends that are not written are not given here.
# Kd listing for each entry below
Property Name: Kd (µM)

1) PVPPPVPPRRAP [S1_R+7A]; 91
2) PVPPPVPPRARP [S1_R+6A]; 67

###

# Kd listing for each entry below
# System Tested: cSH3 domain of Grb2 (Homo sapiens, UniProt P62993)
# Sequence (P62993 156-215 limits assumed): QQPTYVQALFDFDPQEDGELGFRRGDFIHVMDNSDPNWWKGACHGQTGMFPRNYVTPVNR
# Run Description: ITC binding of Sos1 peptides to wildtype cSH3 domain of Grb2
# Details: SD
Ends that are not written are not given here.
Property Name: Kd (µM)

1) PVPPPVPPRRAP [S1_R+7A]; 318
2) PVPPPVPPRAAP [Peptide S1_AA]; 1570
3) PVPPPVPPAAAP [Peptide S1_AAA]; 3090
4) IAGPPVPPRQST [Peptide S4]; 1320
5) DSPPAIPPRQPT [Peptide S2]; 1400
6) PVPPPVPPARRP [S1_R+5A]; 962
7) PVPPPVPPRARP [S1_R+6A]; 331
8) ESPPLLPPREPV [Peptide S3]; 1720

###

# System Tested: nSH3 domain of Grb2 (Homo sapiens)
# Sequence (P62993 1-58 limits assumed): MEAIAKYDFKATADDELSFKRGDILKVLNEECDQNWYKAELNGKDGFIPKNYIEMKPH
# Run Description: ITC binding of Sos1 peptides to wildtype nSH3 domain of Grb2
# Details: SD
Ends that are not written are not given here.
Property Name: log10 of Kd (log10 of the value in µM)

1) PVPPPVPPRRAP [S1_R+7A]; 1.86
2) PVPPPVPPRAAP [Peptide S1_AA]; 1.92
3) PVPPPVPPAAAP [Peptide S1_AAA]; 3.41
4) PVPPPVPPARRP [S1_R+5A]; 2.69
5) IAGPPVPPRQST [Peptide S4]; 1.91
6) ESPPLLPPREPV [Peptide S3]; 2.07
7) PVPPPVPPRARP [S1_R+6A]; 1.72
8) DSPPAIPPRQPT [Peptide S2]; 1.75

###

# System Tested: cSH3_D187A mutant domain of Grb2 (Homo sapiens, UniProt P62993, D187A)
# Sequence (P62993 156-215 D187A limits assumed): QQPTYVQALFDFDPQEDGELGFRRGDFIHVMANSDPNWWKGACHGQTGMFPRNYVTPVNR
# Run Description: ITC binding of Sos1 peptides to cSH3_D187A mutant domain
# Details: SD
pKd: −log10 of the molar value. Ends that are not written are not given here.
Property Name: pKd

1) PVPPPVPPRRAP [S1_R+7A]; 2.62
2) PVPPPVPPRARP [S1_R+6A]; 3.26
